- Test details: Pharmacokinetics in BALB/C nude mice after intragastric administration
- Format: in vivo
- Cond: female, mouse, plasma, po, 2 mg/kg, read-out: Residence time MRT

Structure smiles: CN(C)C(=O)/C=C/CN1CCC[C@@H](Oc2ccc(/C(=C(/CC(F)(F)F)c3ccccc3)c3ccc4[nH]nc(F)c4c3)cn2)C1
MRT [h]: 1.9

###

- Test details: Pharmacokinetics in BALB/C nude mice after intragastric administration
- Format: in vivo
- Cond: female, mouse, plasma, po, 30 mg/kg, read-out: Half-life t1/2 (converted)
Recorded metric: half-life (h)

Structure smiles: O=C(/C=C/CNC1(COc2ccc(/C(=C(/CC(F)(F)F)c3ccccc3)c3ccc4[nH]nc(F)c4c3)cn2)CC1)N1CCOCC1
Recorded metric: half-life
Measurement units: h
Reported value: 1.99
--
Structure smiles: O=C(/C=C/CN1CCC[C@@H](Oc2ccc(/C(=C(/CC(F)(F)F)c3ccccc3)c3ccc4[nH]nc(F)c4c3)cn2)C1)N1CCCC1
Recorded metric: half-life
Measurement units: h
Reported value: 0.89
--
Structure smiles: CN(C)C(=O)/C=C/CNC1(COc2ccc(/C(=C(/CC(F)(F)F)c3ccccc3)c3ccc4[nH]nc(F)c4c3)cn2)CC1
Recorded metric: half-life
Measurement units: h
Reported value: 0.94
--
Structure smiles: O=C(/C=C/CNC1(COc2ccc(/C(=C(/CC(F)(F)F)c3ccccc3)c3ccc4[nH]nc(F)c4c3)cn2)CC1)N1CC[C@H](O)C1
Recorded metric: half-life
Measurement units: h
Reported value: 1.67
--
Structure smiles: O=C(/C=C/CNC1(COc2ccc(/C(=C(/CC(F)(F)F)c3ccccc3)c3ccc4[nH]nc(F)c4c3)cn2)CC1)N1CC(O)C1
Recorded metric: half-life
Measurement units: h
Reported value: 1.26
--
Structure smiles: O=C(/C=C/CNC1(COc2ccc(/C(=C(/CC(F)(F)F)c3ccccc3)c3ccc4[nH]nc(F)c4c3)cn2)CC1)N1CCO[C@@H](CO)C1
Recorded metric: half-life
Measurement units: h
Reported value: 1.2

Origin of values: patent US12325696B2
